Just for reference, patent US20230276831A1 is where these values come from.

- System: Lactobacillus fructivores (NBRC 13954)
- Measurement Description: Antimicrobial action of oxygen-containing heterocyclic compounds in soy sauce (Test Example 7)
- Format: cell-based
- Condition Notes: NBRC13954, 168 h, salt 4% (w/v), alcohol 5% (v/v), test substance 5 ppm
Attribute Measured: activity at 5 ppm

• COc1c(CC=C(C)C)c(O)cc2oc(=O)c(-c3ccc(O)cc3O)cc12 = 10 to 50%
• CC(C)=CCc1cc(-c2coc3cc(O)c(CC=C(C)C)c(O)c3c2=O)cc(O)c1O = 10 to 50%
• COc1c(CC=C(C)C)c(O)cc2c1C[C@H](c1ccc(O)c(CC=C(C)C)c1O)CO2 = 10 to 50%
• C=CC(C)(C)c1c(O)cc(OC)c2cc(-c3ccc(O)cc3O)c(=O)oc12 = 50 to 100%
• COc1cc2oc(-c3ccc(O)cc3O)cc2c(OC)c1CC=C(C)C = 50 to 100%
• CC(C)=CCc1c(O)c(CC=C(C)C)c2occ(-c3ccc(O)cc3)c(=O)c2c1O = < 10%
• COc1c(CC=C(C)C)c(O)cc2c1C[C@H](c1ccc(O)cc1O)CO2 = 10 to 50%
• COc1cc2oc(=O)c(-c3ccc(O)cc3O)cc2c(OC)c1CC=C(C)C = 10 to 50%
